# System: S. enterica typhimurium WT;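 note: active when median AUC fell below 0.1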
# Experiment Notes: growth AUC normalised to DMSO control (median) (fraction of control); higher = less growth inhibition, active = hit call of the paper
# Details: 20 µM
Where a name gives a salt, the structure may show the parent alone.
Property: growth AUC normalised to DMSO control; scope: individual compounds

[
  {
    "Compound": "CC[N+](C)(C)Cc1ccccc1Br [Bretylium tosylate]",
    "growth AUC normalised to DMSO control": 1
  },
  {
    "Compound": "CCCSS/C(CCO)=C(/C)N(C=O)Cc1cnc(C)nc1N",
    "growth AUC normalised to DMSO control": 0.997
  },
  {
    "Compound": "O=C1OC(CN2CCOCC2)CN1/N=C/c1ccc([N+](=O)[O-])o1 (stereo not drawn) [Furaltadone hydrochloride]",
    "growth AUC normalised to DMSO control": 0.878
  },
  {
    "Compound": "Nc1cc(-c2ccncc2)c[nH]c1=O",
    "growth AUC normalised to DMSO control": 1
  },
  {
    "Compound": "CC1CNc2c(cccc2S(=O)(=O)N[C@@H](CCCNC(=N)N)C(=O)N2CC[C@@H](C)C[C@@H]2C(=O)O)C1 (stereo partly drawn)",
    "growth AUC normalised to DMSO control": 1.01
  },
  {
    "Compound": "CC(C)(Oc1ccc(C2CC2(Cl)Cl)cc1)C(=O)O (stereo not drawn) [Ciprofibrate]",
    "growth AUC normalised to DMSO control": 0.992
  },
  {
    "Compound": "CC(=O)OCC(=O)NCCCOc1cccc(CN2CCCCC2)c1 [Roxatidine acetate hydrochloride]",
    "growth AUC normalised to DMSO control": 0.994
  },
  {
    "Compound": "O=C(O)[C@H]1/C(=C/CO)O[C@@H]2CC(=O)N21 [Clavulanate potassium salt]",
    "growth AUC normalised to DMSO control": 0.995
  },
  {
    "Compound": "O=C(Nc1ccc([N+](=O)[O-])cc1Cl)c1cc(Cl)ccc1O [Niclosamide]",
    "growth AUC normalised to DMSO control": 0.992
  },
  {
    "Compound": "CCCC1C(=O)N2C(N(C)C)=Nc3ccc(C)cc3N2C1=O (stereo not drawn)",
    "growth AUC normalised to DMSO control": 1
  },
  {
    "Compound": "C[C@]12CC[C@@H]3c4ccc(O)cc4CC[C@H]3[C@@H]1CC[C@@H]2O",
    "growth AUC normalised to DMSO control": 1.02
  },
  {
    "Compound": "C=C(CC)C(=O)c1ccc(OCC(=O)O)c(Cl)c1Cl",
    "growth AUC normalised to DMSO control": 1
  },
  {
    "Compound": "CC(CNC1CCCCC1)OC(=O)c1ccccc1 (stereo not drawn) [Hexylcaine hydrochloride]",
    "growth AUC normalised to DMSO control": 0.995
  },
  {
    "Compound": "COc1ccc2c(c1)c(CC(=O)OC/C=C(\\C)CC/C=C(\\C)CCC=C(C)C)c(C)n2C(=O)c1ccc(Cl)cc1",
    "growth AUC normalised to DMSO control": 0.996
  },
  {
    "Compound": "CN(c1nccc(=O)[nH]1)C1CCN(c2nc3ccccc3n2Cc2ccc(F)cc2)CC1",
    "growth AUC normalised to DMSO control": 1.01
  },
  {
    "Compound": "OCc1cc(C(O)CNCCCCCCOCCCCc2ccccc2)ccc1O (stereo not drawn)",
    "growth AUC normalised to DMSO control": 0.995
  },
  {
    "Compound": "CCN(CC)CCNc1ccc(CO)c2sc3ccccc3c(=O)c12",
    "growth AUC normalised to DMSO control": 0.993
  },
  {
    "Compound": "CCCCNC(=O)NS(=O)(=O)c1ccc(C)cc1 [Tolbutamide]",
    "growth AUC normalised to DMSO control": 0.996
  }
]
